molecular target: UniProtKB P10635
Sequence (P10635 whole entry): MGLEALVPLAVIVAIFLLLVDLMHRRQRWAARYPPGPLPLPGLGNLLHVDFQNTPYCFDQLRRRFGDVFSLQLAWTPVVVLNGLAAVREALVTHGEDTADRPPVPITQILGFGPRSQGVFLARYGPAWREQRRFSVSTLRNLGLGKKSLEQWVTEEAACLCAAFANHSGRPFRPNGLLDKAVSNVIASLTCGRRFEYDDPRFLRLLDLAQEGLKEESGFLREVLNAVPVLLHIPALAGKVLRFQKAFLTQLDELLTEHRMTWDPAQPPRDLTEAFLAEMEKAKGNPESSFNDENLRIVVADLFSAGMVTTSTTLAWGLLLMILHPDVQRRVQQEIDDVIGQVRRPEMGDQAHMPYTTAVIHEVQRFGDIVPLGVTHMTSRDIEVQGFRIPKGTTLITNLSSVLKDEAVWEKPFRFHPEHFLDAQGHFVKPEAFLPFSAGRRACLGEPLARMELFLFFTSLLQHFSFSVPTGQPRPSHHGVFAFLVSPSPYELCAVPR
pIC50: −log10 of the molar value.
parameter: pIC50

mol=O=c1cc(-c2ccc(O)c(-c3c(O)cc(O)c4c(=O)cc(-c5ccc(O)cc5)oc34)c2)oc2cc(O)cc(O)c12 experimental_value=5.34

Values compiled from paper PMC9975586.
